Taken from patent US7019109B2.

Target Entity: human SSTR1 (Homo sapiens, UniProt P30872)
Construct: expressed in transfected cells; host or cells: CHO-K1 cells and CCL39 cells
Sequence (P30872 whole entry): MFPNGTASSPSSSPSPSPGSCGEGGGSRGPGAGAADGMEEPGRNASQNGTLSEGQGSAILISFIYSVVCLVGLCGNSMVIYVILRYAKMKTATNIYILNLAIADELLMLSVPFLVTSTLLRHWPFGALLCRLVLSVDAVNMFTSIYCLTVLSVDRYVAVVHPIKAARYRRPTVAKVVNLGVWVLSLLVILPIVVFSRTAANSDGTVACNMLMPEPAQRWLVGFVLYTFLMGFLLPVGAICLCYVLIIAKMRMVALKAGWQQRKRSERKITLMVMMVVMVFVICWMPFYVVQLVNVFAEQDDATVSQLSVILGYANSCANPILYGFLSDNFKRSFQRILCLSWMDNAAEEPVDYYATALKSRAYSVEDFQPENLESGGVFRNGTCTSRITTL
Assay Text: Displacement of 125I-[Leu8,D-Trp22,Tyr25]-SRIF-28 from cloned SSTR1 (receptor autoradiography)
Format: binding
Condition Notes: displacement of iodinated SRIF-28 radioligand; read-out: IC50 / binding affinity at human SSTR1
Procedure: Generally, recombinant cells expressing the receptor are washed and homogenized to prepare a crude protein homogenate that is frozen, embedded and then cut in 10–20 μm thin sections, as known in this art. Candidate substances, such as potential SRIF agonists and antagonists, are incubated with the tissue sections, and the interaction between the candidate substance and the receptor polypeptide is monitored. […]
Where a SMILES comes first, the peptide text is derived from it. Bridges are numbered along the chain shown (N, C = ends). [ ]: non-standard residue; d: D form. NMePhe(4-CH2NHiPr) = CN[C@@H](Cc1ccc(CNC(C)C)cc1)C(=O)O
Result Type: IC50

Fill in: IC50 of CC(C)NCc1ccc(C[C@H]2C(=O)N[C@@H]([C@@H](C)O)C(=O)N[C@@H](Cc3ccc(O)cc3)C(=O)N[C@@H]([C@@H](C)O)C(=O)N[C@@H](CO)C(=O)N[C@H](C(=O)O)CSSC[C@H](N)C(=O)N[C@@H](CCCCN)C(=O)N[C@@H](Cc3ccccc3)C(=O)N[C@@H](Cc3ccccc3)C(=O)N[C@H](Cc3c[nH]c4ccccc34)C(=O)N2C)cc1 [Peptide No. 2] (H-CKFF[dW][NMePhe(4-CH2NHiPr)]TYTSC-OH; disulfide 1-11) is ___ ~6.1 nM
